The reported numbers originate from the supplement of paper PMC10065799.

# assayed-target: Hck (UniProt P08631)
# Sequence (P08631 whole entry, looked up): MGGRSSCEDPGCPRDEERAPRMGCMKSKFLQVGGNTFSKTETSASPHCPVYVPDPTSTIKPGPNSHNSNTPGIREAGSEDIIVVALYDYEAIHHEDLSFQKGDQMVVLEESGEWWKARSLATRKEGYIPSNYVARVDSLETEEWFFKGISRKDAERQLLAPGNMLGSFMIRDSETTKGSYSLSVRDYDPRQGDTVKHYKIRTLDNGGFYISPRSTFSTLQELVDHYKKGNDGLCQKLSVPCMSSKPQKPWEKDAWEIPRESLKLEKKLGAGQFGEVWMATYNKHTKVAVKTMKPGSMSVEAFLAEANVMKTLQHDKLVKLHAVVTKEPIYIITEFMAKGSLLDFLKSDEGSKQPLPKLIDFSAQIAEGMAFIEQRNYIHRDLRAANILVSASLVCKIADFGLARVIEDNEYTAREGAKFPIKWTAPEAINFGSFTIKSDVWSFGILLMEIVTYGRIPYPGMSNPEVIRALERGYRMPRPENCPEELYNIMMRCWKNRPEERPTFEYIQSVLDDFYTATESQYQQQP
# method-notes: phosphorylation enrichment, bacterial display (enrichment ratio); higher = better substrate or ligand; peptides without Tyr show the background;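 also: 11-residue human phosphosite peptides and single-mutation variants displayed on the E. coli surface, counted by deep sequencing, each peptide's frequency after selection divided by its frequency in the unselected input library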;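 also: frequency after pTyr selection over input frequency; kinase dosed for 20-30% of maximal phosphorylation in three min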

residue-codes: FVHDNYVIQRT [CPS1_Y1450_R1453Q]
assayed-target: Hck (UniProt P08631)
phosphorylation enrichment: 0.436
//
residue-codes: TYGVVYKARNK [CDK2_Y19]
assayed-target: Hck (UniProt P08631)
phosphorylation enrichment: 1.47
//
residue-codes: GVRLFYRVMES [RB1_Y454_YF]
assayed-target: Hck (UniProt P08631)
phosphorylation enrichment: 0.541
//
residue-codes: YPLELYERVRM [PRKCG_Y312]
assayed-target: Hck (UniProt P08631)
phosphorylation enrichment: 1.65
//
residue-codes: SRDPFYEMLTA [CYTH1_Y382_A386T]
assayed-target: Hck (UniProt P08631)
phosphorylation enrichment: 5.45
//
residue-codes: GQKTLYSFFSP [UNG_Y8]
assayed-target: Hck (UniProt P08631)
phosphorylation enrichment: 4.06
//
residue-codes: FASALYRQRRS [FGF11_Y162_YF]
assayed-target: Hck (UniProt P08631)
phosphorylation enrichment: 0.546
//
residue-codes: SKDQICPMKLK [RANBP17_Y823_Y823C]
assayed-target: Hck (UniProt P08631)
phosphorylation enrichment: 0.573
//
residue-codes: QITQVYGFFHE [PPP2CA_Y127_D131H_YF]
assayed-target: Hck (UniProt P08631)
phosphorylation enrichment: 14.3
//
residue-codes: FGSSSYGGAGG [RPA2_Y14_YF]
assayed-target: Hck (UniProt P08631)
phosphorylation enrichment: 0.374
//
residue-codes: KRISCYEARYQ [PFKFB3_Y194_S197R]
assayed-target: Hck (UniProt P08631)
phosphorylation enrichment: 0.388
//
residue-codes: IVKAYYVHARA [AIPL1_Y268_R270H]
assayed-target: Hck (UniProt P08631)
phosphorylation enrichment: 0.595
//
residue-codes: FADIAYNFRRG [PAH_Y166_H170R_YF]
assayed-target: Hck (UniProt P08631)
phosphorylation enrichment: 0.429
//
residue-codes: EQLQSYQVEII [KRT33A_Y268_A270V]
assayed-target: Hck (UniProt P08631)
phosphorylation enrichment: 0.53
//
residue-codes: GFILMYDITNE [RAB3C_Y110]
assayed-target: Hck (UniProt P08631)
phosphorylation enrichment: 0.633
//
residue-codes: HNLDFYKKTTN [FGFR3_Y648_YF]
assayed-target: Hck (UniProt P08631)
phosphorylation enrichment: 1.15
//
residue-codes: EQSGSYIWVPA [DLG1_Y895]
assayed-target: Hck (UniProt P08631)
phosphorylation enrichment: 0.487
//
residue-codes: HNVPIYEGFAL [ACTA1_Y168_YF]
assayed-target: Hck (UniProt P08631)
phosphorylation enrichment: 14.1
//
residue-codes: TFGNLYGSRKQ [YIPF7_Y59_A54T_YF]
assayed-target: Hck (UniProt P08631)
phosphorylation enrichment: 3.44
//
residue-codes: NFDRIYIFHLR [MYOF_Y1137_V1136I_YF]
assayed-target: Hck (UniProt P08631)
phosphorylation enrichment: 0.507
//
residue-codes: EACPSYSHVVL [CHST6_Y168_R166P]
assayed-target: Hck (UniProt P08631)
phosphorylation enrichment: 0.463
//
residue-codes: PEVCDYGLGGG [GSTO1_Y239_A236V]
assayed-target: Hck (UniProt P08631)
phosphorylation enrichment: 0.765
//
residue-codes: SVTCTYSPALN [TP53_Y126]
assayed-target: Hck (UniProt P08631)
phosphorylation enrichment: 0.641
//
residue-codes: SVTCTYSPTLN [TP53_Y126_A129T]
assayed-target: Hck (UniProt P08631)
phosphorylation enrichment: 0.625
//
residue-codes: PRQRRYVFFFS [PTEN_Y174_S170R_YF]
assayed-target: Hck (UniProt P08631)
phosphorylation enrichment: 0.446
//
residue-codes: LTVVIYVLIGR [EPHA3_Y561]
assayed-target: Hck (UniProt P08631)
phosphorylation enrichment: 0.839
//
residue-codes: NTSKMYIPHTD [EXPH5_Y782_D777N]
assayed-target: Hck (UniProt P08631)
phosphorylation enrichment: 0.462
//
residue-codes: DTKDDYSALSV [IL17RB_Y457_N458S]
assayed-target: Hck (UniProt P08631)
phosphorylation enrichment: 0.661
//
residue-codes: PVQAAYQNVVA [HBB_Y131_K133N]
assayed-target: Hck (UniProt P08631)
phosphorylation enrichment: 0.536
